# STUDY TARGET: UniProt Q9NUW8
# PROTOCOL NOTES: Inhibition of recombinant TDP1 (unknown origin) using 5'-[32P]-labeled single stranded oligonucleotide DNA containing 3'-phophotyrosine (N14Y) as substrate incubated for 15 mins by PAGE assay
pIC50: −log10 of the molar value.
RESULT TYPE: pIC50

O=C1Cc2cc(-c3ccco3)ccc2C(=O)N1O :: < 3.95

Proceed to the following item.
Q: Form field: reported pIC50 of O=C1Cc2cc(-c3ccco3)ccc2C(=O)N1
A: < 3.95

---

# STUDY TARGET: Tyrosyl-DNA phosphodiesterase 1 (Homo sapiens, UniProt Q9NUW8)
# Sequence (Q9NUW8 whole entry): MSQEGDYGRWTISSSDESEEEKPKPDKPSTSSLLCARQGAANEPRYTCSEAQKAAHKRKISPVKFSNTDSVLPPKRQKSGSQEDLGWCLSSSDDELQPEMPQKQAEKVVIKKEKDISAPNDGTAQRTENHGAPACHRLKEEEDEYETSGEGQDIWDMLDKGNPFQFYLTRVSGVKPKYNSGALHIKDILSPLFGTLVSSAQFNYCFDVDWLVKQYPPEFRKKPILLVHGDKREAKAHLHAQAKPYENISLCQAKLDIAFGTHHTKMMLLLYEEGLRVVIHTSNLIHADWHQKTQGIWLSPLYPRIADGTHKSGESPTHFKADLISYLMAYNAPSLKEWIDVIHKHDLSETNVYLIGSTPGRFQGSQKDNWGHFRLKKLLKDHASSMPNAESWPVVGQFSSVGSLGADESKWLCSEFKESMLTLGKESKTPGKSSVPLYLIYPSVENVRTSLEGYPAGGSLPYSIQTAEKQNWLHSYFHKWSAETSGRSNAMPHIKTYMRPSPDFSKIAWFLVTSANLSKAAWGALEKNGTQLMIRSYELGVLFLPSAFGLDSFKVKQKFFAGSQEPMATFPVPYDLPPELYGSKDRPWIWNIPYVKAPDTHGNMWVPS
# PROTOCOL NOTES: Inhibition of recombinant TDP1 (unknown origin) using 5'-[32P]-labeled single stranded oligonucleotide DNA containing 3'-phophotyrosine (N14Y) as substrate at 111 uM incubated for 15 mins by PAGE assay
Active and inactive are the calls of the source. The rule behind the calls is not given here.
RESULT TYPE: inhibition

Take a look at these entries with their results.
O=C1Cc2cccc(-c3cccc([N+](=O)[O-])c3)c2C(=O)N1 :: inactive
CC(=O)Nc1c2c(nn1-c1ccccc1)CC(=O)NC2=O :: inactive
O=C1Cc2cc(-c3nc4ccccc4s3)ccc2C(=O)N1 :: inactive
O=C1Cc2cc(Cc3ccccc3)ccc2C(=O)N1 :: inactive
O=C1Cc2c(cccc2-c2ccco2)C(=O)N1 :: inactive

Q: Need inhibition, item O=C1Cc2ccc(-c3ccc(Br)cc3)cc2C(=O)N1
A: inactive

Q: Which value of inhibition has been reported for O=C1Cc2cc(-c3cccc(Br)c3)ccc2C(=O)N1 in the records?
A: inactive

---

# STUDY TARGET: Tyrosyl-DNA phosphodiesterase 2 (Homo sapiens, UniProt O95551)
# Sequence (O95551 whole entry): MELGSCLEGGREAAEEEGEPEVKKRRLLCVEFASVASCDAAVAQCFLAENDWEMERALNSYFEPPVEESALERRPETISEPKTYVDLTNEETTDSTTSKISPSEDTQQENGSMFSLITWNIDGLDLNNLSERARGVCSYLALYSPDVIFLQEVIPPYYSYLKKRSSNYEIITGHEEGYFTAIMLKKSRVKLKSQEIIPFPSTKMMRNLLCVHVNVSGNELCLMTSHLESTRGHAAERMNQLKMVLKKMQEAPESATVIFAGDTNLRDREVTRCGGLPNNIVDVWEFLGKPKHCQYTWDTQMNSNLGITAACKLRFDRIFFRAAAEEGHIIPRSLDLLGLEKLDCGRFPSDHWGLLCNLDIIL
# PROTOCOL NOTES: Inhibition of recombinant human TDP2 using 18-mer single stranded oligonucleotide DNA as substrate incubated for 15 mins by PAGE assay
Consider the following compounds and their measured pIC50 readings.
Scale: pIC50 equals -log10([C]), with [C] in mol/L.

# example entries with known answers
COc1ccc(-c2ccc3c(c2)CC(=O)NC3=O)cc1F :: 5.52
CS(=O)(=O)Nc1ccc(-c2ccc3c(c2)CC(=O)NC3=O)cc1 :: 5.72
O=C1Cc2cc(-c3nc4ccccc4s3)ccc2C(=O)N1 :: 5.29
CCOC(=O)C1C(=O)NC(=O)c2ccc(Br)cc21 (configuration not stated) :: 4.85
O=C1Cc2cc(-c3ccccc3)ccc2C(=O)N1 :: 4.64

Q: Identify the measured pIC50 of O=C1Cc2cccc(-c3cccc([N+](=O)[O-])c3)c2C(=O)N1 for Tyrosyl-DNA phosphodiesterase 2 (Homo sapiens, UniProt O95551).
A: 4.72

Q: Param readout= pIC50; system= Tyrosyl-DNA phosphodiesterase 2 (Homo sapiens, UniProt O95551); entry= O=C1Cc2cccc(-c3cccc(O)c3)c2C(=O)N1 ; returns value.
A: 4.59

Q: pIC50 of CS(=O)(=O)Nc1cccc(-c2ccc3c(c2)C(=O)NC(=O)C3)c1 on Tyrosyl-DNA phosphodiesterase 2 (Homo sapiens, UniProt O95551)?
A: 5.35

Q: Reported pIC50 for Tyrosyl-DNA phosphodiesterase 2 (Homo sapiens, UniProt O95551), given CC(=O)c1cccc(-c2ccc3c(c2)CC(=O)NC3=O)c1 ?
A: 5.26

---

# STUDY TARGET: UniProt:O95551
# Sequence (O95551 whole entry): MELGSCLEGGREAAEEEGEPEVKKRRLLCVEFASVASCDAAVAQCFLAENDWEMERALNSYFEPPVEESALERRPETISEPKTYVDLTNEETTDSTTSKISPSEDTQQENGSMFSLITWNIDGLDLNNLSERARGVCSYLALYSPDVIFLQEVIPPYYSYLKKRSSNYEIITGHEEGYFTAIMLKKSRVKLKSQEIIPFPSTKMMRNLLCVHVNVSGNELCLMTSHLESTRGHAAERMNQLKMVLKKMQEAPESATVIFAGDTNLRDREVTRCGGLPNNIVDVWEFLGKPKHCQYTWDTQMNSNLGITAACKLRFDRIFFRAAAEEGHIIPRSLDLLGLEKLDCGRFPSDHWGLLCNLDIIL
# PROTOCOL NOTES: Inhibition of recombinant human TDP2 using 18-mer single stranded oligonucleotide DNA as substrate incubated for 15 mins by PAGE assay
RESULT TYPE: pIC50
# pIC50: negative log10 of molar concentration; output just the value

C=CC(=O)Nc1cccc(-c2ccc3c(c2)C(=O)NC(=O)C3)c1 :: 4.96
O=C1Cc2ccc(I)cc2C(=O)N1 :: 5.01
O=C1Cc2cc([N+](=O)[O-])ccc2C(=O)N1 :: 4.72

Q: Dear colleague, I am looking for the recorded pIC50 of the following molecule: O=C1Cc2ccc(-c3ccc(O)cc3)cc2C(=O)N1
A: 4.85

Q: What value of pIC50 has been recorded for this entry: O=C1Cc2cc(-c3ccc(F)cc3F)ccc2C(=O)N1
A: 5.35

Q: Which pIC50 is listed for O=C1Cc2ccc(C(=O)c3cccc([N+](=O)[O-])c3)cc2C(=O)N1 ?
A: 5.27

Q: Name the reported pIC50 value associated with the molecule O=C1Cc2cc(-c3cccc([N+](=O)[O-])c3)ccc2C(=O)N1
A: 5.00

Q: Entry O=C1Cc2ccc(-c3cccc(Cl)c3)cc2C(=O)N1 has what pIC50?
A: 5.77

Q: What value of pIC50 has been reported for the following molecule? O=C1Cc2cc(-c3ccc(Cl)cc3)ccc2C(=O)N1
A: 5.19

Q: Entry under review: O=C1Cc2ccc(-c3cccc([N+](=O)[O-])c3)cc2C(=O)N1 . Reported pIC50?
A: 4.96

Q: So what does the record say about pIC50 for O=C1Cc2cc(-c3ccc(C(=O)O)cc3)ccc2C(=O)N1 ?
A: 4.52

Q: What value of measured pIC50 is listed for O=C1Cc2cc(-c3cccc(Cl)c3)ccc2C(=O)N1 ?
A: 5.25

Q: Field request: pIC50 | item: O=C1Cc2cc(-c3cccc(C(=O)O)c3)ccc2C(=O)N1
A: 4.68

Q: Item O=C1Cc2ccc(-c3cccc(O)c3)cc2C(=O)N1 has what recorded pIC50?
A: 4.82

Q: Please report the recorded pIC50 for O=C1Cc2cc(C(F)(F)F)ccc2C(=O)N1 .
A: 5.15

Q: Reported pIC50 for O=C1Cc2cc(I)ccc2C(=O)N1 : what is it?
A: 5.12

Q: Sample O=C1Cc2cc(-c3ccc(F)c(Cl)c3)ccc2C(=O)N1 — what was its pIC50?
A: 5.39

---

# STUDY TARGET: Tyrosyl-DNA phosphodiesterase 2 (Homo sapiens, UniProt O95551)
# Sequence (O95551 whole entry): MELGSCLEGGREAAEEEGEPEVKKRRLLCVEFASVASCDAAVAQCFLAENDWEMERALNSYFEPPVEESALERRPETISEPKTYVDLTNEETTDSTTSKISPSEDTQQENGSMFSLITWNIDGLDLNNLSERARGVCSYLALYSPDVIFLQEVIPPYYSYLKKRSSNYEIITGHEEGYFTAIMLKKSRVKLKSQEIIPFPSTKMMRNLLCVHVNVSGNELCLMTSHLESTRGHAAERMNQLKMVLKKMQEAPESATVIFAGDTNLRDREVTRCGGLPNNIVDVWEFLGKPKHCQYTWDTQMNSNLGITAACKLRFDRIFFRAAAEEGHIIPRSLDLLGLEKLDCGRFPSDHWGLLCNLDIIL
# PROTOCOL NOTES: Inhibition of human TDP2 expressed in DT40 cells (TDP2-knockout) using 18-mer single stranded oligonucleotide DNA as substrate incubated for 15 mins by PAGE assay
Each entry below lists one item and its recorded pIC50 value.
pIC50 here is simply -log10 of the concentration when that concentration is written in mol/L.

Record excerpt, results attached:
O=C1Cc2cccc(I)c2C(=O)N1 :: 5.59
O=C1Cc2cc(-c3cccnc3)ccc2C(=O)N1 :: 4.64

Q: Dear colleague, I am looking for the recorded pIC50 of the following molecule: O=C1Cc2ccc(C(=O)O)cc2C(=O)N1
A: 5.28

Q: Fill in the blank: the reported pIC50 of O=C1Cc2cc(-c3cccc(Br)c3)ccc2C(=O)N1 is ____.
A: 5.19

Q: Would you kindly share the measured pIC50 for O=C1Cc2cc(-c3cccc([N+](=O)[O-])c3)ccc2C(=O)N1 ?
A: 4.60

Q: // pIC50 lookup, key: O=C1Cc2cc(-c3ccc(C(F)(F)F)cc3)ccc2C(=O)N1
A: 5.57
